The measured values listed here are drawn from patent US20240190874A1.

Biological target: AR (Homo sapiens, UniProt P10275)
Construct: Degradation of AR; Cellular potency; host or cells: VCaP cells
Sequence (P10275 1-920): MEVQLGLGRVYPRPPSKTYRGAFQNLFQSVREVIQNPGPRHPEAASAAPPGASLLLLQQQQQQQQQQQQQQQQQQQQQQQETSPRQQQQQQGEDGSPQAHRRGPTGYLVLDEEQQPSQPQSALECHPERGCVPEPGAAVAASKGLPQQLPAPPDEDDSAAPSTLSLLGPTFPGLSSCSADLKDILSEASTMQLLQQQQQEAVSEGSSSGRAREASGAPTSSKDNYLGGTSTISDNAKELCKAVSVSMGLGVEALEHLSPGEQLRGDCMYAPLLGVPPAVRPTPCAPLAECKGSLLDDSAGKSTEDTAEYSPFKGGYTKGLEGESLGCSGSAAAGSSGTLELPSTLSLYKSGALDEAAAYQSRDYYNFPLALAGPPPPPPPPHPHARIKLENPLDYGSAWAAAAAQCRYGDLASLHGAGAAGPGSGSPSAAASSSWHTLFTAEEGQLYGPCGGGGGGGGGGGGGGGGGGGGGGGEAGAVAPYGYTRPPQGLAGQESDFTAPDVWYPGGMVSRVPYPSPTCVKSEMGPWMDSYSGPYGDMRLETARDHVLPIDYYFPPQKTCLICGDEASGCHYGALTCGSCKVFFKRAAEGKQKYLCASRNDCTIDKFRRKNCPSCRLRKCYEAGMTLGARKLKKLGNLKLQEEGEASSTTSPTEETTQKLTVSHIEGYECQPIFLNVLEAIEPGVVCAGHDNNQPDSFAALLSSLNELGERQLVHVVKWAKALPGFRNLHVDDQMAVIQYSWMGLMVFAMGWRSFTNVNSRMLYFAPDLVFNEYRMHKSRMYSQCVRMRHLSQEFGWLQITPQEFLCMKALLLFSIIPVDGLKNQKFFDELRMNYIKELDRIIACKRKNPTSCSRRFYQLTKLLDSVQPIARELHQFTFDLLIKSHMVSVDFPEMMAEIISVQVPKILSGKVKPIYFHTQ
Assay: Degradation of AR in VCaP cells
Type: cell-based
Conditions: VCaP cells
Procedure: Biological Assays. LNCaP and VCaP cells used were purchased from American Type Culture Collection (ATCC). LNCaP were grown in RPMI 1640 (Invitrogen) and VCaP cells were grown in DMEM with Glutamax (Invitrogen). All of the cells were supplemented with 10% fetal bovine serum (Invitrogen) at 37° C. in a humidified 5% CO2 incubator.
Property: DC50; scope: individual compounds

# compound, experimental.value
rows = [
    ("C[C@H]1CC2(CCN(c3ccc(CN4CCC(C5CN(c6ccc7c(c6)C(=O)N(C6CCC(=O)NC6=O)C7=O)C5)CC4)cn3)CC2)CN1c1ccc(C#N)c(Cl)c1 (some centres unmarked) [compound 176]", "< 10 nM"),
    ("C[C@H]1CC2(CCN(c3ccc(CC4CCN(C5CN(c6ccc7c(c6)C(=O)N(C6CCC(=O)NC6=O)C7=O)C5)CC4)nn3)CC2)CN1c1ccc(C#N)c(Cl)c1 (some centres unmarked) [compound 198]", "< 10 nM"),
    ("C[C@H]1CC2(CCN(c3ccc(N4CCN(CC5CN(c6ccc7c(c6)C(=O)N(C6CCC(=O)NC6=O)C7=O)C5)CC4)nn3)CC2)CN1c1ccc(C#N)c(Cl)c1 (some centres unmarked) [compound 47]", "< 1 nM"),
    ("C[C@H]1CC2(CCN(c3ccc(CN4CCN(C5CCN(c6cc7c(cc6F)C(=O)N(C6CCC(=O)NC6=O)C7=O)CC5)CC4)cn3)CC2)CN1c1ccc(C#N)c(Cl)c1 (some centres unmarked) [compound 165]", "< 10 nM"),
]

For the compound C[C@H]1CC2(CCN(c3cnc(C(=O)N4CCN(C5CN(c6ccc7c(c6)C(=O)N(C6CCC(=O)NC6=O)C7=O)C5)CC4)s3)CC2)CN1c1ccc(C#N)c(Cl)c1 (some centres unmarked) [compound 137] , give its measured DC50 value.
< 10 nM
